experimental.target: Gag-Pol polyprotein (Human immunodeficiency virus type 1 group M subtype B (isolate HXB2))
protocol.notes: RNase H inhibition, HIV 1 Gag Pol polyprotein, FRET biochemical assay, screening (AID 372)
setup.conditions: HIV-1 RT RNase H, FRET RNA/DNA substrate fluorescence; at 10 µM; active compounds read high
Hit rate of the full screen: of about 100,000 compounds, about 770 (0.77%) were called active. For the sample, actives were picked, then their nearest neighbours and some compounds at random.
Where inhibition equals or exceeds 9%, the correct label is satisfied; where it does not, the label is not satisfied.

Some solved cases for reference:
- O=C(/C=C/c1ccccc1)NC(=S)Nc1ccc(NC(=O)c2cccs2)cc1: satisfied
- COc1cc2ccccc2cc1C(=O)Nc1ccc(Cl)c(Cl)c1: satisfied
- CSCCNS(=O)(=O)c1ccc(C)c([N+](=O)[O-])c1: not satisfied
- Cc1nn(CC(=O)Nc2sc3c(c2C#N)CCCC3)c(C)c1[N+](=O)[O-]: not satisfied
- O=C(NC(=S)Nc1cccc(-c2nc3cc(Cl)ccc3o2)c1)c1ccc(F)cc1: satisfied
- C=CCN1C(=O)/C(=C2\SC(=S)N(Cc3ccccc3)C2=O)c2ccccc21: satisfied

Determine whether this compound has inhibition no lower than 9%: `CCN1CCN(CC(=O)N/N=C/c2ccccc2)CC1`
not satisfied
